TARGET_SYSTEM: rat P2X7 (Rattus norvegicus, UniProt Q64663)
Sequence (Q64663 1-595): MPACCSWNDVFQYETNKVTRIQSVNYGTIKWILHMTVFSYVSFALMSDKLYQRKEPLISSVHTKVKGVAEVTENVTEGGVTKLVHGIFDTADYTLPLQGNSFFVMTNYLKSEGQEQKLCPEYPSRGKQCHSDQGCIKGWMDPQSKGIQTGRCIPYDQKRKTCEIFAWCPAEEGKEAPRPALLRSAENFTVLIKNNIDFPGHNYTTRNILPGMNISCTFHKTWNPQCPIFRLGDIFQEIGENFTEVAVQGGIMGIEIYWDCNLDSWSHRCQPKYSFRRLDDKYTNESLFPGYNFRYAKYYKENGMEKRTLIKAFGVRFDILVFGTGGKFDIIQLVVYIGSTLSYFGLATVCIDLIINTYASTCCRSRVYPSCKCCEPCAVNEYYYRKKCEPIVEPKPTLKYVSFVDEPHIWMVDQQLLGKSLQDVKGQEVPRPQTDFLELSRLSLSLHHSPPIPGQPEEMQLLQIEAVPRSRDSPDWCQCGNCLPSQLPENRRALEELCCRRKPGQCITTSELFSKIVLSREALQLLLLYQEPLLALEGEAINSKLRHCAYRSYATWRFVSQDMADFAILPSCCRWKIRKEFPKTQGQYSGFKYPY
PROTOCOL: Ca2+ flux (FLIPR) in 1321N1 cells expressing recombinant rat P2X7 channel
ASSAY_CONDITIONS: FLIPR (rat) IC50 (μM), 250 μM BzATP
ASSAY_ENDPOINT: IC50 (µM)

>>> meas_value("C[C@H]1Cn2c(nnc2-c2cc(F)c(F)c(F)c2)CN1C(=O)c1cccc(C(F)(F)F)c1Cl")
0.927
>>> meas_value("O=C(c1cccc(Cl)c1Cl)N1CCn2c(C(F)F)nnc2[C@H]1c1ccccc1")
0.441
>>> meas_value("Cc1nnc2n1CCN(C(=O)c1cccc(C(F)(F)F)c1Cl)[C@@H]2c1ccccc1")
2.05
>>> meas_value("C[C@H]1Cn2c(nnc2-c2ccccc2F)CN1C(=O)c1ccc(F)c(Cl)c1Cl")
14.8
>>> meas_value("C[C@H]1Cn2c(nnc2-c2cccc(F)c2)CN1C(=O)c1cccc(C(F)(F)F)c1Cl")
9.23

a: C[C@H]1Cn2c(nnc2-c2ccccc2F)CN1C(=O)c1cccc(C(F)(F)F)c1Cl
b: O=C(c1cccc(C(F)(F)F)c1Cl)N1CCn2c(-c3ccco3)nnc2C1c1ccccc1 (racemic)
Which gives the smaller IC50 number: a or b ? // return label of chosen record
b

1: C[C@H]1Cn2c(nnc2-c2ncc(F)cn2)CN1C(=O)c1cccc(C(F)(F)F)c1Cl
2: C[C@H]1Cn2c(nnc2-c2ccco2)CN1C(=O)c1cccc(C(F)(F)F)c1Cl
Which gives the smaller IC50 number: 1 or 2 ? // return label of chosen record
2
(2: 0.0047 µM, 1: 0.0101 µM)

The values you see were collected from patent US12338243B2.
